Values were extracted from patent US20140179896A1.

target: T1, full-length human KDR on cells (human, UniProt P35968 20-1356); assay: flow cytometry on CHO KDR cells
T1 construct: whole, on cells; also used here as the target for the HUVEC rows (natural human endothelial cells); also called CHO KDR; CHO-KDR
T1 sequence (P35968 20-1356): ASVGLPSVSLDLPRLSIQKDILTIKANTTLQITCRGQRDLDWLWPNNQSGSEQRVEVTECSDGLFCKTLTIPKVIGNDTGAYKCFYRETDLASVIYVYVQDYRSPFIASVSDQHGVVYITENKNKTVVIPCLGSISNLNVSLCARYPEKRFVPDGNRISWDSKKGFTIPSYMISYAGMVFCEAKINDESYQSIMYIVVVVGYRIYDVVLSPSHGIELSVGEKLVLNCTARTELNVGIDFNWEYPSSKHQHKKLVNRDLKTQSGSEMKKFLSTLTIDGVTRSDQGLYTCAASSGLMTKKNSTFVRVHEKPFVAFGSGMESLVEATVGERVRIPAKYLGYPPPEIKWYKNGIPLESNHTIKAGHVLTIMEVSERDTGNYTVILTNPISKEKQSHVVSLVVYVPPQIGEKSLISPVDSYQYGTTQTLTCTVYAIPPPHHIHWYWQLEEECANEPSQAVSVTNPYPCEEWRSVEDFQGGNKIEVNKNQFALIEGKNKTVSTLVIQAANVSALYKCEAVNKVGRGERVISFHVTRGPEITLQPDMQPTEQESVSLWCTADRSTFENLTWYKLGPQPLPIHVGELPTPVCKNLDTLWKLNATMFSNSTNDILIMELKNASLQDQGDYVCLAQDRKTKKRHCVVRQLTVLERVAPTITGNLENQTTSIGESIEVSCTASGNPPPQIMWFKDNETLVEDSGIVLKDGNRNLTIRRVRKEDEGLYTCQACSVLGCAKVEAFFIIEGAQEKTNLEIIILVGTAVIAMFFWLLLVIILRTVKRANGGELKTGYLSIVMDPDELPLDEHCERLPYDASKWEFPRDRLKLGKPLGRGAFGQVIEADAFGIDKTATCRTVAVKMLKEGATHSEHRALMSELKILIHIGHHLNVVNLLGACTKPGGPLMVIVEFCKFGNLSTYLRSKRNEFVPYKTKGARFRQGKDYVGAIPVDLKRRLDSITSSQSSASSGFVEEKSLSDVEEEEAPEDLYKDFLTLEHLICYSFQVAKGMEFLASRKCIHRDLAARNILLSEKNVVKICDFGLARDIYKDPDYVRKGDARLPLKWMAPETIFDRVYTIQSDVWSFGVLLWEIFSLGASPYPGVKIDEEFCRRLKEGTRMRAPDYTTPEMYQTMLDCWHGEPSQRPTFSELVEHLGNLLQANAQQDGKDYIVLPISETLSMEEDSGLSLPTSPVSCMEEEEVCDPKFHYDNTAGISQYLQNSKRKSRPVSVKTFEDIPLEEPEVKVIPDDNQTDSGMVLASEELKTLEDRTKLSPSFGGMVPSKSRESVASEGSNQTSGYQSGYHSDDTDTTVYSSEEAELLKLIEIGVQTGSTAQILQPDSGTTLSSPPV
REPORTED_PROPERTY: pEC50
Numbers only, as −log10 of the molar value.

# annotated cases, reported pEC50 shown
BINDER	pEC50
E26 (designed binder, Del 1-8 10Fn3 clone; Flag-tagged in vitro translated protein in the radioactive assay, His6-tagged E. coli protein in BIAcore and cell assays; tags left out) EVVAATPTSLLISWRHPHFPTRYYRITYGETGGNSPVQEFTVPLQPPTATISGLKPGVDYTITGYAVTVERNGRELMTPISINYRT	8.59
E29 (designed binder, Del 1-8 10Fn3 clone; Flag-tagged in vitro translated protein in the radioactive assay, His6-tagged E. coli protein in BIAcore and cell assays; tags left out) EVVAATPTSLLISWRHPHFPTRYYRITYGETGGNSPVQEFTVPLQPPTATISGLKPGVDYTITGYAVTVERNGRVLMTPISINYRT	8.64

Provide each entry's pEC50 from the list below.
1. E18 (designed binder, Del 1-8 10Fn3 clone; Flag-tagged in vitro translated protein in the radioactive assay, His6-tagged E. coli protein in BIAcore and cell assays; tags left out) EVVAATPTSLLISWRHPHFPTRYYRITYGETGGNSPVQEFTVPLQPPTATISGLKPGVDYTITGYAVTVERNGRELNTPISINYRT
2. E19 (designed binder, Del 1-8 10Fn3 clone; Flag-tagged in vitro translated protein in the radioactive assay, His6-tagged E. coli protein in BIAcore and cell assays; tags left out) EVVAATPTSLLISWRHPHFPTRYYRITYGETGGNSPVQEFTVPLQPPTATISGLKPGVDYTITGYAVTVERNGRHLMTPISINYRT

[8.38, 8.12]
